Protocol text: logP by HPLC (EEC directive 79/831 Annex V. A8, gradient method)
Assay type: physicochemical

>  <Item smiles>
CNC(=O)C(=NOC)c1ccccc1Oc1nccc(OC(C)C)n1

>  <chromatographic logP>
2.2

$$$$
